Below is a list of entries, each paired with its recorded INHIBITION value.
# Test system: Plasmodium berghei
# Assay comment: Screen against P. berghei liver stage (PbLuc), transformed with Luciferase, at 2uM
# Type: functional, HepG2
# Test conditions: tested at 2 uM
Out of some 68,000 compounds screened, about 2,700 (4%) showed an effect of 50% or more. What follows is part of a selection rich in strong results, with near analogues and random picks from the rest.
Express your answer in %, writing the number without its unit.

Previously resolved entries follow.
- CNC(=O)c1cccc(C2CNCCN2C(=O)c2ccn(C)n2)c1 (configuration not stated): 24.56
- Cc1ccc(NC(=O)C2CSCN2C(=O)c2cnccn2)c(C)c1 (configuration not stated): 51.21
- Cc1cccc(NC(=O)C2CSCN2C(=O)c2cnccn2)c1C (configuration not stated): -1.85
- Cc1ccc(NC(=O)C2CSCN2C(=O)c2cc[nH]n2)c(C)c1 (configuration not stated): -16.12
- COc1ccc(C(=O)C2CCCN(c3cc(N)ncn3)C2)c(C)c1 (configuration not stated): 16.32

Enter INHIBITION (test system Plasmodium berghei) for Cc1ccc(-n2ncc3c2CCCC3N)cc1C (configuration not stated)
-13.35

Enter INHIBITION (test system Plasmodium berghei) for CC(C)NC(=O)N1Cc2nccn2CC(COc2cccnc2)C1 (configuration not stated)
27.08

Enter INHIBITION (test system Plasmodium berghei) for CC(C(=O)Nc1cccc(C(F)(F)F)c1)N(C)CCN1CCOCC1 (configuration not stated)
-18.99

Enter INHIBITION (test system Plasmodium berghei) for c1cncc(C2CC3(CCN(c4cnccn4)CC3)c3ccccc32)c1 (configuration not stated)
-8.91

Enter INHIBITION (test system Plasmodium berghei) for `C=C(C)CN(CC)Cc1nc(CC)no1`
29.39

Enter INHIBITION (test system Plasmodium berghei) for Cc1ccc(NC(=O)C2CSCN2C(=O)c2cnccn2)cc1C (configuration not stated)
54.2

Enter INHIBITION (test system Plasmodium berghei) for CC(C(=O)Nc1cccc(F)c1)N(C)CCN1CCOCC1 (configuration not stated)
57.23

* * *

# System: Plasmodium berghei
# Assay comment: Screen against P. berghei liver stage (PbLuc), transformed with Luciferase, at 2uM
# Assay type: functional, HepG2
# Test conditions: tested at 2 uM
Hit rate of the full screen: of about 68,000 compounds, about 2,700 (4%) showed an effect of 50% or more. The entries come from a sample that favours strong results as a whole.
Note to self: INHIBITION under 20% means Fulfilled, ties and anything higher get Not fulfilled.

Would you please look over these solved cases?
* O=C(Cc1cccs1)NCC1(O)CCSC1 (stereo not given) | Fulfilled
* O=C(NCC1(O)CCSCC1)c1ccoc1 | Not fulfilled
* CN(C)c1cc(C(=O)NCC2(c3cccc(F)c3)CCOCC2)ccn1 | Fulfilled
* Cc1ccccc1C(NC(=O)CCCS(C)(=O)=O)C(C)(C)C (stereo not given) | Not fulfilled
* CNC(=O)c1cccnc1NCc1ccc(Cn2ccnc2)cc1 | Not fulfilled

Does the reported INHIBITION of C1CCC(c2nnc3sc(C4CCOC4)nn23)C1 (stereo not given) stay below 20%?
Fulfilled

Does the reported INHIBITION of O=C(Cc1cccs1)NCC1(O)CCc2ccccc2C1 (stereo not given) stay below 20%?
Not fulfilled

* * *

Below is a list of entries, each paired with its recorded INHIBITION value.
# System: Plasmodium berghei
# Assay comment: Screen against P. berghei liver stage (PbLuc), transformed with Luciferase, at 2uM
# Type: functional, HepG2
# Test conditions: tested at 2 uM
The campaign covered roughly 68,000 compounds. About 2,700 (4%) showed an effect of 50% or more. Only a selection was taken, and strong results are over-represented in it overall.
Express your answer in %, writing the number without its unit.

Report measured INHIBITION; entry is `Cc1c(C(=O)N(C)CC(F)(F)F)nnn1-c1ccccc1Cl`
-20.76

Report measured INHIBITION; entry is `CSC1(CNC(=O)c2ccn(-c3ccccc3F)n2)CCOCC1`
-5.41

Report measured INHIBITION; entry is `Cc1ccc(CN2CC[C@H](c3nnc(COc4ccc(F)cc4)o3)C2)o1`
17.76

Report measured INHIBITION; entry is `c1csc(CN2CCCN(c3ccc(Cn4ccnc4)cn3)CC2)c1`
17.61

Report measured INHIBITION; entry is Cc1cc(C)n(C2CCCN(C(=O)c3ccn(C)c(=O)c3)C2)n1 (stereo unspecified)
-42.24

Report measured INHIBITION; entry is CCCc1noc(CCC(=O)N2CCN(C)CC2c2ccccc2)n1 (stereo unspecified)
35.56
